Values from patent US10259810B2

Could you please report measured % Activation for the items listed next?
Test Target: ΔF508-CFTR (Homo sapiens, UniProt P13569, DEL508-508)
Construct: host or cells: CFBE41o-, doxycycline-inducible
Sequence (P13569 with tags, fused parts or gaps DEL508-508): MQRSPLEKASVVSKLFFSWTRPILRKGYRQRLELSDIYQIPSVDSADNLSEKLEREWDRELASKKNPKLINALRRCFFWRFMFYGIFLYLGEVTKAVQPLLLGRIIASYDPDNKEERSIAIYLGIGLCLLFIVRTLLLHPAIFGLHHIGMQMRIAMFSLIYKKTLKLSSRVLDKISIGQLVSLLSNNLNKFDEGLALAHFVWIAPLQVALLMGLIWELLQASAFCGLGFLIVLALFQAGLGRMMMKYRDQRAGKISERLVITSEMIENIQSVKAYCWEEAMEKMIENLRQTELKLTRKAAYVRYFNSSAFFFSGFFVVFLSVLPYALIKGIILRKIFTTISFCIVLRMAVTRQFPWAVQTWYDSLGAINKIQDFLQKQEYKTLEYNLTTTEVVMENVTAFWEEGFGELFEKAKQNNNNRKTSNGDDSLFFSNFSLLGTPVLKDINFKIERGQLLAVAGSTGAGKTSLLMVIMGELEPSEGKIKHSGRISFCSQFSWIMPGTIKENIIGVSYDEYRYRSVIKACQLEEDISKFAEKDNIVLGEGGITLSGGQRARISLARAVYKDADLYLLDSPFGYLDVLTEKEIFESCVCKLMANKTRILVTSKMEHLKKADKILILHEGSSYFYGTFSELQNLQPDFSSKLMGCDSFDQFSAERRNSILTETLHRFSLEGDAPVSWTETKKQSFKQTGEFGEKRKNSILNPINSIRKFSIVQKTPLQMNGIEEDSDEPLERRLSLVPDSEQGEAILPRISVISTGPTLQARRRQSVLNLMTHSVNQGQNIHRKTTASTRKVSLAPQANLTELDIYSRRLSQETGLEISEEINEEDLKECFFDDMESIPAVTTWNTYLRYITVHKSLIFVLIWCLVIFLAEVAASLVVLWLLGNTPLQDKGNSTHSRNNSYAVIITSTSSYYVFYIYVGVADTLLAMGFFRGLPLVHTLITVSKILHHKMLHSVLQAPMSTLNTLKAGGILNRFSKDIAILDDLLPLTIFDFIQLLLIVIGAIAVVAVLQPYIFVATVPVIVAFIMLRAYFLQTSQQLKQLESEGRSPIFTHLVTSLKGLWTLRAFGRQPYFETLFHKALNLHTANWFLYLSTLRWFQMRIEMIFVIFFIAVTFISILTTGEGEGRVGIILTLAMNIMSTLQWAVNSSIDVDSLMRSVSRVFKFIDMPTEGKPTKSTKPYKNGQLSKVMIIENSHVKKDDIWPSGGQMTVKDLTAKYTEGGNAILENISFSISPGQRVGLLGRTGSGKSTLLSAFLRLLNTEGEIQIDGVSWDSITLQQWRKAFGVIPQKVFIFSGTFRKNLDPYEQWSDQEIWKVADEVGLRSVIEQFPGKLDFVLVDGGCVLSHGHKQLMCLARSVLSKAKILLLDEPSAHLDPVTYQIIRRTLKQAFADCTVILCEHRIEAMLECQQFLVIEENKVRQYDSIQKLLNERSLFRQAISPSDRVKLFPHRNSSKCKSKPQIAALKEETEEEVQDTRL
Assay Notes: CFTR cell surface levels using HRP-tagged ΔF508-CFTR expressing CFBE cells, intrinsic corrector capacity
Format: cell-based
Design: concentration or dose not given beside the values
Condition Parameters: HRP-tagged ΔF508-CFTR expressing CFBE41o- cells; compound alone (intrinsic corrector capacity); 20 hours at 33° C.

Fill in % Activation for each of the 7 compounds listed.
1. COCC1CCN(c2cc(C(=O)N(C)S(C)(=O)=O)nc3c2c(C2CCC2)nn3-c2ccccc2)CC1
2. CC(C)c1nn(-c2cccc(N(C)C)c2)c2nc(C(=O)NS(C)(=O)=O)cc(-c3cnc(N4CCC(C#N)CC4)nc3)c12
3. Cc1nn(-c2cccc(Cl)c2)c2nc(C(=O)NS(C)(=O)=O)cc(-c3ccc(N4CCOCC4)cc3)c12
4. COCC1CCN(c2cc(C(=O)NS(=O)(=O)CCCN(C)C)nc3c2c(C(C)C)nn3-c2ccc(F)cc2)CC1
5. CC(C)c1nn(C2CCC(F)(F)CC2)c2nc(C(=O)NS(C)(=O)=O)cc(-c3ccc(N4CCOCC4)cc3)c12
6. COc1cccc(-n2nc(C3CCC3)c3c(N4CCC(N5CCOCC5)CC4)cc(C(=O)NS(=O)(=O)N(C)C)nc32)c1
7. CN(C)S(=O)(=O)NC(=O)c1cc(N2CCC(N3CCN(C4CC4)CC3)CC2)c2c(C3CCC3)nn(-c3ccccc3)c2n1

Return:
98%
355.6%
162.33%
200.4%
182%
287.5%
276.9%

====

Could you please report measured pEC50 for the items listed next?
Test Target: ΔF508-CFTR (Homo sapiens, UniProt P13569, DEL508-508)
Construct: host or cells: CFBE41o-, doxycycline-inducible
Assay Notes: CFTR cell surface levels using HRP-tagged ΔF508-CFTR expressing CFBE cells, in the presence of a co-corrector
Assay type: cell-based
Condition Parameters: HRP-tagged ΔF508-CFTR CFBE cells, in the presence of 3 μM co-corrector; read-out: EC50
Numbers only, as −log10 of the molar value.

Example compounds with recorded pEC50:
Compound	Obs Value
CS(=O)(=O)NC(=O)c1cc(-c2ccc(N3CCC(C#N)CC3)nc2)c2c(C3CCC3)nn(-c3ccnc(N4CCCC4)c3)c2n1 [Compound 189]	6.63
CCCOC1CCN(c2cc(C(=O)NS(C)(=O)=O)nc3c2c(C2CCC2)nn3-c2ccccc2)CC1 [Compound 152]	6.97
CN1CCN(Cc2cc(C(=O)NS(C)(=O)=O)nc3c2c(C2CCC2)nn3-c2ccc(F)cc2)CC1 [Compound 518]	5.51
CN(C)S(=O)(=O)NC(=O)c1cc(N2CCC3(CC2)CCN(C2CC2)CC3)c2c(C3CCC3)nn(-c3ccc(F)cc3)c2n1 [Compound 584]	6.56
Cc1nn(-c2ccccc2)c2nc(C(=O)NS(=O)(=O)c3ccccc3)cc(-c3ccc(N4CCOCC4)cc3)c12 [Compound 2]	5.95

Continue with the next compound.
Enquiry: Could you tell me which pEC50 is on file for C[C@H](C1CCN(c2cc(C(=O)NS(=O)(=O)N(C)C)nc3c2c(C2CCC2)nn3-c2ccc(F)cc2)CC1)N1CCOCC1 (single isomer, unassigned) [Compound 479] ?
Return: 6.96
